system_name: KDM1A (Homo sapiens, UniProt O60341)
protocol: HRP-coupled fluorometric demethylase assay with recombinant KDM1A (H2O2/HRP counter-screen); dialysis and dilution reversibility; cell thermal shift in MGC-803
experimental_endpoint: IC50 (nM)
Answers are plain numbers, in nM.

If you can, please state the reported IC50 value of Oc1ccc(OCc2ccccc2)cc1 [monobenzone] .
451
